test target: Glycogen synthase kinase-3 beta (Homo sapiens)
test protocol: binding affinity to recombinant GSK3beta – biophysical, surface plasmon resonance, microfluidics, dry powder samples, dose response (AID 624108)
Active and inactive are the calls of the source. No rule for the calls is given here.
Your response should consist of one outcome taken from active, inactive

Check out these entries, answers already filled in.
Cc1[nH]nc2c1C(c1ccc3c(c1)OCO3)C1=C(CC(C)(C)CC1=O)N2 (configuration not stated) : inactive
CC1(C)CC(=O)C2=C(C1)Nc1n[nH]c(C(F)(F)F)c1C2c1c(F)cccc1F (configuration not stated) : inactive
Cc1[nH]nc2c1C(c1ccc(C(F)(F)F)cc1)C1=C(CC(C)(C)CC1=O)N2 (configuration not stated) : active

Which outcome was assigned to `COc1ccccc1[C@@H]1C2=C(CC(C)(C)CC2=O)Nc2n[nH]c(C(F)(F)F)c21` in this test?
active

Test call for this compound, please: Cc1ccc(C2C3=C(CC(C)(C)CC3=O)Nc3n[nH]c(C)c32)cc1 (configuration not stated)
inactive

For COc1ccccc1C1C2=C(CC(C)(C)CC2=O)Nc2ccccc21 (configuration not stated) , what call appears in the results of this test?
inactive

Which outcome was assigned to `Cc1[nH]nc2nc3c(c(-c4cccs4)c12)C(=O)CC(C)(C)C3` in this test?
active

###

test target: Glycogen synthase kinase-3 beta (Homo sapiens) (UniProt P49841)
Sequence (P49841 whole entry, looked up): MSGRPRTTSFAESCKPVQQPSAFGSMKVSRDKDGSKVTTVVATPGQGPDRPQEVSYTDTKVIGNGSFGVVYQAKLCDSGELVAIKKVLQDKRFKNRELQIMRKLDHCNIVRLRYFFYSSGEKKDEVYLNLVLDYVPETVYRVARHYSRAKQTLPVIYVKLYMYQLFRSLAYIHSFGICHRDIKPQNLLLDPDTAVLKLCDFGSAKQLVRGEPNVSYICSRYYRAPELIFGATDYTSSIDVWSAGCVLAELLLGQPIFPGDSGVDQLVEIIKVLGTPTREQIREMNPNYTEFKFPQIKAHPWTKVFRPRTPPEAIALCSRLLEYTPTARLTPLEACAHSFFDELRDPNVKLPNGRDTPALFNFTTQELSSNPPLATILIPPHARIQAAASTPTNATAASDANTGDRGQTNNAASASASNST
test protocol: binding affinity to recombinant GSK3beta – biophysical, surface plasmon resonance, microfluidics, dry powder samples, dose response (AID 624108)
Calls of active or inactive are those of the source. The rule behind the calls is not given here.
Give one outcome, nothing more. List: active, inactive

A selection of reference data follows.
Cc1[nH]nc2c1[C@@H](c1cccs1)C1=C(CC(C)(C)CC1=O)N2 : inactive
COc1ccccc1C1C(C(C)=O)=C(C)Nc2n[nH]c(C)c21 (stereo not given) : inactive
COc1ccccc1C1C2=C(CC(C)(C)CC2=O)Nc2onc(C)c21 (stereo not given) : inactive
Cc1[nH]nc2c1C(c1ccccc1Br)C1=C(CC(C)(C)CC1=O)N2 (stereo not given) : active
Cc1[nH]nc2nc3c(cc12)C(=O)CC(C)(C)C3 : inactive
Cc1[nH]nc2c1C(c1cccnc1)C1=C(CC(C)(C)CC1=O)N2 (stereo not given) : active
COc1ccccc1-c1c2c(nc3n[nH]c(C)c13)CCC2=O : inactive
COc1ccccc1C1C2=C(CC(C)(C)CC2=O)Nc2n[nH]c(C)c21 (stereo not given) : active

Hi, sorry to bother you, what did the test record for `CC1(C)CC(=O)/C(=C\c2ccccc2C(F)(F)F)C(=Nc2cc(C(F)(F)F)[nH]n2)C1` ?
inactive

Hi team, can someone confirm the assay call for Cc1[nH]nc2c1C(c1ccn[nH]1)C1=C(CC(C)(C)CC1=O)N2 (stereo not given) ?
inactive

###

test target: Glycogen synthase kinase-3 beta (Homo sapiens)
test protocol: binding affinity to recombinant GSK3beta – biophysical, surface plasmon resonance, microfluidics, dry powder samples, dose response (AID 624108)
The source made the active and inactive calls. How the calls were made is not given here.
Outcomes you can answer with include only these: YES = active, NO = inactive

These solved cases illustrate the format of a correct answer.
COc1ccccc1C1C2=C(CC3(CCCCC3)CC2=O)Nc2n[nH]c(C)c21 (stereo not given) : NO
Cc1[nH]nc2c1[C@H](c1cccs1)C1=C(CC(C)(C)CC1=O)N2 : YES
COc1ccc(C2C3=C(CC(C)(C)CC3=O)Nc3n[nH]c(C)c32)cc1 (stereo not given) : NO
CC1(C)CC(=O)C2=C(C1)Nc1n[nH]c(C(F)(F)F)c1C2c1ccc(F)cc1C(F)(F)F (stereo not given) : YES

Record lookup: outcome of this test for COc1ccccc1C1C2=C(CCCC2=O)Nc2n[nH]c(C)c21 (stereo not given) ?
NO

###

test target: Glycogen synthase kinase-3 beta (Homo sapiens) (UniProt P49841)
test protocol: binding affinity to recombinant GSK3beta – biophysical, surface plasmon resonance, microfluidics, dry powder samples, dose response (AID 624108)
Activity calls are given as the source filed them. The rule behind the calls is not given here.
Assign a class; possible classes are True for active, False for inactive

The examples below pair each entry with its known result.
Cc1[nH]nc2c1C(c1cccc(C(F)(F)F)c1)C1=C(CC(C)(C)CC1=O)N2 (stereo not given) : False
CC1(C)CC(=O)C2=C(C1)Nc1n[nH]c(C(F)(F)F)c1C2c1ccccc1C(F)(F)F (stereo not given) : True
COc1ccccc1C1C2=C(CC(C)(C)CC2=O)Nc2[nH]ncc21 (stereo not given) : True
COc1ccccc1C1C2=C(CC(C)(C)CC2=O)Nc2n[nH]c(C(C)(C)C)c21 (stereo not given) : True

Turning now to a further compound:
Dear colleague, could you share the recorded outcome for COc1cccc(C2C3=C(CC(C)(C)CC3=O)Nc3n[nH]c(C)c32)c1 (stereo not given) when you have a moment?
False

###

test target: Glycogen synthase kinase-3 beta (Homo sapiens)
test protocol: binding affinity to recombinant GSK3beta – biophysical, surface plasmon resonance, microfluidics, dry powder samples, dose response (AID 624108)
Calls of active or inactive are those of the source. No rule for the calls is given here.
measurement kind: Kd

Sample answers from the record:
CC1(C)CC(=O)C2=C(C1)Nc1n[nH]c(C(F)(F)F)c1C2c1cccc(F)c1C(F)(F)F (stereo not given) : 822 nM
COc1ccccc1[C@H]1C2=C(CC(C)(C)CC2=O)Nc2n[nH]c(C(F)(F)F)c21 : inactive
CC1(C)CC(=O)C2=C(C1)Nc1n[nH]c(C(F)(F)F)c1C2c1cc(F)ccc1OC(F)(F)F (stereo not given) : 627 nM
COc1ccccc1/C=C1\C(=O)CC(C)(C)CC1=Nc1cc(C(F)(F)F)[nH]n1 : > 5000 nM (inactive)

Endpoint output: Kd of Cc1[nH]nc2c1C(C1CCCCC1)C1=C(CC(C)(C)CC1=O)N2 (stereo not given) . Value?
> 5000 nM (inactive)

I am curious: what Kd value has been reported for Cc1[nH]nc2c1C(C)C1=C(CC(C)(C)CC1=O)N2 (stereo not given) ?
> 5000 nM (inactive)

Need Kd, item Cc1[nH]nc2c1C(c1ccc(F)cc1)C1=C(CC(C)(C)CC1=O)N2 (stereo not given)
inactive

Recorded Kd of Cc1[nH]nc2c1C(c1cccs1)C1C(=O)CC(C)(C)CC1=N2 (stereo not given) , please.
420 nM

What does the record list as Kd for Cc1[nH]nc2c1C(c1ccccc1C(F)(F)F)C1=C(CC(C)(C)CC1=O)N2 (stereo not given) ?
49 nM

Dear colleague, I am looking for the recorded Kd of the following compound: Cc1[nH]nc2c1C(c1ccccc1C#N)C1=C(CC(C)(C)CC1=O)N2 (stereo not given)
> 5000 nM (inactive)

Any idea what its Kd is? The compound is Cc1[nH]nc2c1C(c1ccc(Cl)s1)C1=C(CC(C)(C)CC1=O)N2 (stereo not given)
520 nM

Kd lookup needed for CC1(C)CC(=O)C2=C(C1)Nc1n[nH]c(C(F)(F)F)c1C2(C)c1ccccc1 (stereo not given) , thanks.
> 5000 nM (inactive)

Suppose we examine the compound CCc1[nH]nc2c1C(c1ccccc1OC)C1=C(CC(C)(C)CC1=O)N2 (stereo not given) ; what Kd value has been reported?
> 5000 nM (inactive)

I have this compound here, Cc1cccc(C2C3=C(CC(C)(C)CC3=O)Nc3n[nH]c(C)c32)c1 (stereo not given) , and I need its recorded Kd.
802 nM

What does the data say about its Kd? Entry: `Cc1[nH]nc2nc3c(c(-c4ccccc4)c12)C(=O)CC(C)(C)C3`
13 nM

Any idea what Kd was measured for Cc1[nH]nc2c1C(c1ccccn1)C1=C(CC(C)(C)CC1=O)N2 (stereo not given) ?
390 nM

Please look up its Kd: COc1ccccc1C1C2=C(CC(C)(C)CC2=O)Nc2n[nH]c(C(F)(F)F)c21 (stereo not given)
102 nM

I would be grateful if you could share the reported Kd for Cc1[nH]nc2c1C(c1ccc(C#N)cc1)C1=C(CC(C)(C)CC1=O)N2 (stereo not given) .
inactive

Entry under review: CC1(C)CC(=O)C2=C(C1)Nc1n[nH]c(C(F)(F)F)c1C2c1ccccc1 (stereo not given) . Reported Kd?
113 nM

Name the reported Kd value associated with the compound COc1ccccc1C1C2=C(CCC(C)(C)C2=O)Nc2n[nH]c(C)c21 (stereo not given)
305 nM

# Kd lookup, item Cc1[nH]nc2c1C(c1ccc(Cl)cc1)C1=C(CC(C)(C)CC1=O)N2 (stereo not given)
inactive

Report Kd for Cc1ccccc1C1C2=C(CC(C)(C)CC2=O)Nc2n[nH]c(C)c21 (stereo not given) please.
223 nM

Kd lookup needed for Cc1[nH]nc2c1C(c1cccc(C#N)c1)C1=C(CC(C)(C)CC1=O)N2 (stereo not given) , thanks.
331 nM

###

test target: Glycogen synthase kinase-3 beta (Homo sapiens)
test protocol: binding affinity to recombinant GSK3beta – biophysical, surface plasmon resonance, microfluidics, dry powder samples, dose response (AID 624108)
Active and inactive are the calls of the source. How the calls were made is not given here.
Pick one: label 1 (active), label 0 (inactive)

Cc1[nH]nc2c1C(c1cccc(F)c1)C1=C(CC(C)(C)CC1=O)N2 (configuration not stated) : label 0

Shift focus to the following entry.
Would you mind telling me which call this test gave CC1(C)CC(=O)C2=C(C1)Nc1n[nH]c(C(F)(F)F)c1C2c1cc(F)ccc1F (configuration not stated) ?
label 1
